Source: paper PMC9230201

Assay Overview: Urinary excretion of phenolic metabolites after intake of the GCPE nutraceutical
Conditions Used: week 8, interval 11–24 h
Result Type: Amount excreted in urine, 11-24 h (µmol)

Q: Value lookup for Amount excreted in urine, 11-24 h; key = O=C(O)CNC(=O)c1cccc(O)c1 [3′-Hydroxyhippuric acid]
A: 9

Q: Next compound up: O=C(O)c1ccc(O)c(O)c1 [3,4-Dihydroxybenzoic acid]
A: 0.03

Q: Next compound up: O=C(O)CNC(=O)c1ccc(O)cc1 [4′-Hydroxyhippuric acid]
A: 2.8

Q: Next compound up: COc1ccc(C=CC(=O)O)cc1OS(=O)(=O)O [iFA-3′-sulfate, 4′-Methoxycinnamic acid-3′-sulfate]
A: 1

Q: Next compound up: COc1ccc(CCC(=O)O)cc1O[C@@H]1O[C@H](C(=O)O)[C@@H](O)[C@H](O)[C@H]1O [DHiFA-3′-glucuronide]
A: 0.6

a: COc1ccc(/C=C/C(=O)O)cc1O [iFA, 3′-Hydroxy-4′-methoxycinnamic acid]
b: COc1cc(/C=C/C(=O)O[C@@H]2C[C@@](O)(C(=O)O)C[C@@H](O)[C@@H]2O)ccc1O [3-Feruloylquinic acid]
c: O=C(O)CCc1ccc(O)c(O)c1 [DHCA, 3-(3′,4′-Dihydroxyphenyl)propanoic acid]
Q: Rank entries according to their Amount excreted in urine, 11-24 h, from the largest number down. # output: labels, in the requested order
A: c, a, b
(c: 6 µmol, a: 0.09 µmol, b: 0.015 µmol)

----------
Assay Overview: Urinary excretion of phenolic metabolites after intake of the GCPE nutraceutical
Conditions Used: week 8, interval 3–6 h
Result Type: Amount excreted in urine, 3-6 h (µmol)

Below are worked cases with known answers.
Q: Value lookup for Amount excreted in urine, 3-6 h; key = O=C(O)CCc1ccc(O[C@@H]2O[C@H](C(=O)O)[C@@H](O)[C@H](O)[C@H]2O)cc1 [DHCoA-4′-glucuronide, 3-(Phenyl)propanoic acid-4′-glucuronide]
A: 0.16

Q: Next compound up: O=C(O)CCc1ccc(O)cc1 [DHCoA, 3-(4′-Hydroxyphenyl)propanoic acid]
A: 0.3

Q: Next compound up: O=C(O)c1ccc(O)c(O)c1 [3,4-Dihydroxybenzoic acid]
A: 0.014

Q: Next compound up: O=C(CCc1ccc(O)c(O)c1)OC1CC(O)(C(=O)O)CC(O)C1O (centres unmarked) [5-Dihydrocaffeoylquinic acid]
A: 0.002

Q: Next compound up: O=C(O)/C=C/c1ccc(O)c(OS(=O)(=O)O)c1 [CA-3′-sulfate, 4′Hydroxycinnamic acid-3′-sulfate]
A: 0.6

P: COc1ccc(C=CC(=O)O)cc1OS(=O)(=O)O [iFA-3′-sulfate, 4′-Methoxycinnamic acid-3′-sulfate]
Q: COc1cc(CCC(=O)OC2CC(O)(C(=O)O)CC(O)C2O)ccc1O (centres unmarked) [5-Dihydroferuloylquinic acid]
Q: From the recorded data, which exceeds the other in Amount excreted in urine, 3-6 h: P or Q ? When you have decided, please share the label of that item.
A: P

----------
Assay Overview: Plasma pharmacokinetics of phenolic metabolites after intake of the GCPE nutraceutical (LC-MS-QToF)
Conditions Used: human, oral, 300 mg, Cmax, week 0, GCPE nutraceutical with 300 mg hydroxycinnamic acids, mean ± SEM, n = 9
Reported Cmax values for the following molecules.
// return numeric value only (unit: nM, not printed)

Q: Value lookup for Cmax; key = COc1cc(C(=O)O)ccc1O [4-Hydroxy-3-methoxybenzoic acid]
A: 1100

Q: Next molecule up: O=C(O)c1ccc(O)cc1 [4-Hydroxybenzoic acid]
A: 90

Q: Next molecule up: `COc1ccc(CCC(=O)O)cc1O`
A: 70

Q: Next molecule up: COc1ccc(CCC(=O)O)cc1OC [Dihydrodimethoxycinnamic acid, 3-(3′,4′-Dimethoxyphenyl)propanoic acid]
A: 110

Please look at the following molecule next.
Q: Value lookup for Cmax; key = `COc1cc(CCC(=O)O)ccc1O`
A: 300
